The origin of these recorded values is ChEMBL document CHEMBL5058564.

Tested on: U2OS
Assay: Incucyte cell viability with U2OS; note: unitless GR value; below 1 slowed growth and below 0 cell loss
Assay type: toxicity, cell-based
Conditions: human, 12 h, 10 µM, compound concentration 10 uM, replicate number 1, timepoint 12 hours
// classify: if (Growth Rate < 0.6) 1 (yes) else 0 (no)

MOLECULE	GROUP_LABEL
CCCOc1ccc2[nH]cc(C3=CCNCC3)c2n1.Cl	0 (no)
O=C([O-])[C@H]1O[C@H](OP(=O)([O-])OP(=O)([O-])OC[C@H]2O[C@@H](n3ccc(=O)[nH]c3=O)[C@H](O)[C@@H]2O)[C@H](O)[C@@H](O)[C@@H]1O.[Na+].[Na+].[Na+]	0 (no)
CO[C@H]1CNC[C@@H](OCC2CCC(F)(F)CC2)[C@@H]1Nc1ncc(-c2cncc(C)c2)c2cc(C)c(=O)[nH]c12	1 (yes)
Oc1c(CN2CCN(c3ccccn3)CC2)cc(Cl)c2cccnc12	1 (yes)
COc1cc2nc(N(C)CCCNC(=O)C3CCCO3)nc(N)c2cc1OC.Cl (configuration not stated) [ALFUZOSIN HYDROCHLORIDE]	1 (yes)
CN1CCN2c3ncccc3Cc3ccccc3C2C1 (configuration not stated)	0 (no)
CC1(C)[C@H]2C[C@H](C/C=C\CCCC(=O)O)[C@@H](NC(=O)c3csc4ccc(O)cc34)[C@@H]1C2	1 (yes)
CC(C)(O)C(=O)N1CCN(c2ccc(C(F)(F)F)c(C3=C(c4c[nH]c5ccccc45)C(=O)NC3=O)c2)CC1	0 (no)
CC(C)Oc1ccc(Cc2ccc(NC3=NCCN3)cc2)cc1	0 (no)
O=C(O)COc1cccc(-c2ocnc2-c2nc(-c3ccccc3)c(-c3ccccc3)o2)c1	0 (no)
OCc1cc(C(O)CNCCCCCCOCCCCc2ccccc2)ccc1O (configuration not stated)	1 (yes)
CN(C)C/C=C/C(=O)Nc1ccc(C(=O)N2CCCC(Nc3ncc(Cl)c(-c4c[nH]c5ccccc45)n3)C2)cc1 (configuration not stated)	1 (yes)
CSCC[C@H](NC(=O)[C@H](CC(C)C)NC(=O)CNC(=O)[C@H](Cc1ccccc1)N(C)C(=O)[C@H](Cc1ccccc1)NC(=O)[C@H](CC(=O)O)NC(=O)CCC(=O)O)C(N)=O [SENKTIDE]	0 (no)
Cc1cc(NC(=O)NCCN2CCC(O)(Cc3ccccc3)CC2)c2ccccc2n1	1 (yes)
Nc1nc(Nc2ccccc2)nc2c1ncn2[C@@H]1O[C@H](CO)[C@@H](O)[C@H]1O	0 (no)
CC(C)COc1ccc(CNC(=O)N(Cc2ccc(F)cc2)C2CCN(C)CC2)cc1	0 (no)

###

Test system: Fibroblast
Assay: Incucyte cell viability with human fibroblast; note: unitless GR value; below 1 slowed growth and below 0 cell loss
Type: toxicity, cell-based
Conditions: 18 h, 10 µM, compound concentration 10 uM, replicate number 1, timepoint 18 hours
Assign true to entries whose Growth Rate meets or exceeds 0.5; assign false to the rest.

> print(dat)
                                   molecule  target.entity  group.label
1  COc1c(C)cc(NC(=O)c2nn(Cc3ccc(F)cc3)c3c2CN(C(=O)c2ccc[nH]2)C[C@]3(C)C(N)=O)cc1C     Fibroblast        false
2  COC[C@@H](c1ccc(C(F)(F)F)cc1)N1CCN(C2(C)CCN(C(=O)c3c(C)ncnc3C)CC2)C[C@@H]1C.O=C(O)/C=C\C(=O)O [VICRIVIROC MALEATE]     Fibroblast        false
3  NC(=O)c1cc2c(-c3ccc(C(=O)NCc4ccnc(Cl)c4)s3)cccc2s1     Fibroblast        false
4  CC[C@H](NC(=O)c1c(C)c(-c2ccccc2)nc2ccccc12)c1ccccc1 [SB-222200]     Fibroblast         true
5  CN(C)CCN(Cc1ccc(-c2ccc(CNCCc3ccccc3)cc2)cc1)C(=O)CCC1CCCC1.Cl.Cl     Fibroblast        false
6  Cc1cnc(CNCC2(F)CCN(C(=O)c3ccc(F)c(Cl)c3)CC2)nc1     Fibroblast         true
7  CCCCCCCCCCCCC/C=C/[C@@H](O)[C@@H](N)COP(=O)(O)O     Fibroblast         true
8  C[C@@](Cc1c[nH]c2ccccc12)(NC(=O)Nc1ccc([N+](=O)[O-])cc1)C(=O)NCC1(c2ccccn2)CCCCC1     Fibroblast        false

###

Tested on: HEK-293T
Assay: Incucyte cell viability with HEK293T; note: unitless GR value; below 1 slowed growth and below 0 cell loss
Assay type: toxicity, cell-based
Settings: human, 18 h, 10 µM, compound concentration 10 uM, replicate number 1, timepoint 18 hours
MEASURE: Growth Rate

> print(dat)
                              line.notation      measure  recorded.value
1  C[C@H](N)Cn1ccc2cc(F)c(Cl)cc21.O=C(O)/C=C/C(=O)O  Growth Rate            0.67
2  CN1CCN(c2ccc(Nc3c4ccccc4nc4ccccc34)cc2)CC1.Cl.Cl.O  Growth Rate           -0.62
3  N[C@](CC1c2ccccc2Oc2ccccc21)(C(=O)O)[C@H]1C[C@@H]1C(=O)O  Growth Rate            0.57
4  Cl.O=C(O)c1cc(-c2ccc(C3CCNCC3)cc2)c2ccc(-c3ccc(C(F)(F)F)cc3)cc2c1  Growth Rate            0.29
5            CCCCCCCCc1ccc(CCC(N)(CO)CO)cc1  Growth Rate           -0.41

###

Test system: HEK-293T
Experiment: Incucyte cell viability with HEK293T; note: unitless GR value; below 1 slowed growth and below 0 cell loss
Format: toxicity, cell-based
Conditions: human, 18 h, 10 µM, compound concentration 10 uM, replicate number 1, timepoint 18 hours
We'd kindly ask you to apply these Growth Rate classes: low = under 0.5, moderate = from 0.5 up to 0.9, high = 0.9 and over

COMPOUND	TARGET_ENTITY	GROUP_LABEL
COc1cc2nc(N(C)CCCNC(=O)C3CCCO3)nc(N)c2cc1OC.Cl (configuration not stated) [ALFUZOSIN HYDROCHLORIDE]	HEK-293T	high
CCCCCCCCc1ccc(CC[C@](N)(CO)COP(=O)(O)O)cc1	HEK-293T	low
CC1=C(C)C(=O)C(C(C)(C)CC(=O)N(CCCCSC[C@H]2O[C@@H](n3cnc4c(N)ncnc43)[C@H](O)[C@@H]2O)Cc2cccc(-c3ccc(Cl)cc3)c2)=C(C)C1=O	HEK-293T	low
Br.Cc1cccc(C2CN(C)CCc3c2cc(O)c(O)c3Cl)c1 (configuration not stated)	HEK-293T	high
Cc1nc(C#Cc2cccnc2)cs1.Cl	HEK-293T	moderate
O=C(NCc1ccc(F)cc1)N1CCN2C(=O)OC(c3ccccc3)(c3ccccc3)C2C1 (configuration not stated)	HEK-293T	high
CC(C)(C)c1ccc(-c2coc3ccc(-c4cn[nH]c4)nc23)cc1	HEK-293T	moderate
O=C([O-])[C@H]1O[C@H](OP(=O)([O-])OP(=O)([O-])OC[C@H]2O[C@@H](n3ccc(=O)[nH]c3=O)[C@H](O)[C@@H]2O)[C@H](O)[C@@H](O)[C@@H]1O.[Na+].[Na+].[Na+]	HEK-293T	moderate
C[C@@H](c1ccc(F)cc1)n1nnc2cnc3ccc(-c4ccc5ocnc5c4)cc3c21	HEK-293T	low
CN[C@@H](C)C(=O)N[C@H](C(=O)N1CCC[C@H]1C(=O)Nc1snnc1-c1ccccc1)C1CCCCC1	HEK-293T	low
O=C(O)c1cccc(/C=C2/C[C@@H]3[C@@H](/C=C/[C@H](O)C4CCCCC4)[C@H](O)C[C@@H]3O2)c1	HEK-293T	high
NC(=O)c1cccc(-c2cc(Nc3ccc(OC(F)(F)F)cc3)ncn2)c1	HEK-293T	low
O=C(O)c1n[nH]c2c1C[C@H]1C[C@@H]21	HEK-293T	moderate
COc1ccccc1N1CCN(CCCCNC(=O)c2ccc3ccccc3c2)CC1.Cl	HEK-293T	moderate
Nc1nc(Nc2ccccc2)nc2c1ncn2[C@@H]1O[C@H](CO)[C@@H](O)[C@H]1O	HEK-293T	moderate

###

System: HEK-293T
Test: Incucyte cell viability with HEK293T; note: unitless GR value; below 1 slowed growth and below 0 cell loss
Assay type: toxicity, cell-based
Conditions: human, 24 h, 10 µM, compound concentration 10 uM, replicate number 1, timepoint 24 hours
This section presents compounds with their documented Growth Rate values.
MEASURE: Growth Rate

> print(dat)
                                   compound  recorded.value
1  Cc1noc(C)c1-c1cnc2c(-c3ccc(C(=O)O)cc3)cn([C@@H](C)c3ccccn3)c2c1             0.6
2  O=C(NCCN1CCC(n2c(=O)[nH]c3cc(Cl)ccc32)CC1)c1ccc(F)cc1 [HALOPEMIDE]             0.5
3  CN(C)C/C=C/C(=O)Nc1ccc(C(=O)N2CCCC(Nc3ncc(Cl)c(-c4c[nH]c5ccccc45)n3)C2)cc1 (configuration not stated)           -0.27
4  C[N+]1(C)[C@@H]2C[C@@H](OC(=O)C(O)(c3cccs3)c3cccs3)C[C@H]1[C@@H]1O[C@@H]12.O.[Br-] [TIOTROPIUM BROMIDE]            0.79
5  C[C@H]1[C@H]2CC[C@H]3[C@@H]4CC=C5C[C@@H](N(C)C)CC[C@]5(C)[C@H]4CC[C@]23CN1C            0.91
6  CC1(COc2ccc3c(c2)ncn3-c2ccc3cccc(N4CCC(N)CC4)c3n2)COC1           -0.22
7  CC(C)CC(=O)Nc1cncc(-c2ccc3[nH]nc(-c4nc5c(-c6cccc(F)c6)cncc5[nH]4)c3c2)c1           -0.44
